The values you see were collected from PubChem BioAssay (NCI).

# System: RPMI-8226 leukemia
# method.summary: NCI tumour cell line growth inhibition, 48 h
experimental.readout: TGI

[[record]]
molecule = "CCOP(=O)(/C=C\\n1ccc(N)nc1=O)OCC"
result_value = "> 100 µM"

[[record]]
molecule = "N#Cc1nc(C2CCC2)oc1N"
result_value = "> 100 µM"


Alright, here's another molecule for you.
# input Please report the measured TGI for CCOC(=O)C1CCC(=O)N1C(=O)c1ccccc1 (stereo not drawn) tested on RPMI-8226 leukemia.
# output > 100 µM

====

Measured TGI, listed per entry for reference.
# System: CAKI-1 renal
# method.summary: NCI tumour cell line growth inhibition, 48 h
Give the value, in units of µM, as a plain number.

[[record]]
compound = "CN(C)CC1CCC(CN(C)C)C1=O (configuration not stated)"
experimental_readout = "TGI"
uom = "µM"
result_value = 1.95

[[record]]
compound = "COc1cnc2c(c1)C(=O)c1c-2n(CCCN2CCN(C)CC2)c(=O)c2cc([N+](=O)[O-])ccc12"
experimental_readout = "TGI"
uom = "µM"
result_value = 2.8


Alright, here's another compound for you.
# input Provide TGI value for the following compound: `CCOC(=O)/C(C#N)=C\C=C(/Cl)c1ccc(Cl)cc1`
# output 22.5

====

Measured TGI, listed per entry for reference.
# System: A549 NSCLC
# method.summary: NCI tumour cell line growth inhibition, 48 h

[[record]]
compound = "NC(=S)NN/C=C(\\C=Nc1ccccc1)[N+](=O)[O-]"
result_value = "> 100 µM"

[[record]]
compound = "CC(C(=O)O)C(C)(O)C(=O)O (centres undefined)"
result_value = "> 100 µM"

[[record]]
compound = "O=C(c1ccncc1)C1C(=O)c2ccccc2C1C1(O)c2ccccc2CC1C(O)c1ccncc1 (centres undefined)"
result_value = "> 100 µM"


# input Provide TGI value for the following compound: `C#CCN(Cc1ccc2nc(OC)c(OC)nc2c1)c1cc(OC)c(OC)c(OC)c1`
# output > 89.6 µM

# input Provide TGI value for the following compound: `CCOC(=O)C#Cc1ccccc1`
# output 58.3 µM

# input Provide TGI value for the following compound: `COC(=O)C1(Cc2ccc3c(c2)CCC3)Cc2ccccc2C1`
# output > 100 µM

====

# Tested on: OVCAR-3 ovarian
# method.summary: NCI tumour cell line growth inhibition, 48 h
experimental.readout: TGI

[[record]]
molecule = "CSC1=Nc2ccccc2N=C(c2ccc(Cl)cc2)C1"
experimental_readout = "TGI"
result_value = "> 100 µM"


# input Please report the measured TGI for `CO[C@@H]1O[C@H](C(=O)c2ccccc2)[C@H]2OC(C)(C)O[C@@H]12` tested on OVCAR-3 ovarian.
# output > 100 µM

# input Please report the measured TGI for CCOC(=O)/C(O)=C1\C(=O)N(C)C(=O)C1c1cccc(OC)c1 (centres undefined) tested on OVCAR-3 ovarian.
# output > 82.1 µM

# input Please report the measured TGI for `O=C1NCN(c2ccccc2)C12CCN(CCCN1CCN(CCOC(c3ccc(F)cc3)c3ccc(F)cc3)CC1)CC2` tested on OVCAR-3 ovarian.
# output 3.86 µM

# input Please report the measured TGI for `Oc1ccccc1-c1nn(CNc2ccccc2Cl)c(=S)o1` tested on OVCAR-3 ovarian.
# output > 100 µM

# input Please report the measured TGI for `CC(=O)OC(Cn1cncn1)(Cn1cncn1)c1ccc(Cl)cc1Cl` tested on OVCAR-3 ovarian.
# output > 100 µM

# input Please report the measured TGI for `O=c1c2cc(Br)ccc2nc(CCl)n1-c1ccc(O)c([N+](=O)[O-])c1` tested on OVCAR-3 ovarian.
# output 33 µM

# input Please report the measured TGI for Cc1ccccc1NC(=O)C1C(=O)N(c2ccccc2C)C(=O)/C1=N\NC(N)=S (centres undefined) tested on OVCAR-3 ovarian.
# output > 100 µM

# input Please report the measured TGI for CC12CCCC3(CC(=O)C(C)(C)C3C(=O)C1)C2 (centres undefined) tested on OVCAR-3 ovarian.
# output > 100 µM

====

# System: OVCAR-4 ovarian
# method.summary: NCI tumour cell line growth inhibition, 48 h
experimental.readout: TGI

[[record]]
compound = "C=C1c2nc3ccccc3n2C=C(c2ccc(Cl)cc2)N1c1ccc(OC)cc1"
result_value = "46.2 µM"

[[record]]
compound = "S=c1cc(-c2ccc3c(c2)OCO3)s[nH]1"
result_value = "> 100 µM"


Alright, here's another compound for you.
# input Provide TGI value for the following compound: C=C1C(O)CC[C@]2(C)C1C1OC(C)(C)O[C@]13CC(=O)C(C)=C([C@H]1OC(C)(C)OC12)C3(C)C (stereo partly drawn)
# output > 100 µM

====

# Tested on: UACC-62 melanoma
# method.summary: NCI tumour cell line growth inhibition, 48 h
experimental.readout: log10 TGI (log10 of the value in µM)
Give log10 of TGI, with TGI taken in µM.

[[record]]
compound = "CC(C)(Oc1ccc(/C=C/C(=O)c2ccc(Cl)cc2)cc1)C(=O)Nc1c(Cl)cccc1Cl"
experimental_readout = "log10 TGI"
result_value = 1.58

[[record]]
compound = "C=C1C(=O)O[C@H]2[C@H]1CC/C(C=Nc1c(N)cc(C(F)(F)F)cc1Br)=C\\CC[C@@]1(C)O[C@@H]21"
experimental_readout = "log10 TGI"
result_value = 0.47

[[record]]
compound = "CCOC(=O)/C(C#N)=C\\C=C(/Cl)c1ccc(Cl)cc1"
experimental_readout = "log10 TGI"
result_value = 1.59

[[record]]
compound = "COC(=O)c1cc(C#N)[nH]c1-c1cc(Br)cs1"
experimental_readout = "log10 TGI"
result_value = 1.58

[[record]]
compound = "CCC(C(=O)C(=O)OC)P1(=O)OC(C)(C)CN1C(C)(C)C (stereo not given)"
experimental_readout = "log10 TGI"
result_value = 1.78


# input Provide log10 TGI value for the following compound: `c1c2c(cc(-n3nnc4c3CCCCCC4)c1-n1nnc3c1CCCCCC3)CCCCCC2`
# output 1.43

====

# System: UACC-257 melanoma
# method.summary: NCI tumour cell line growth inhibition, 48 h
experimental.readout: TGI

[[record]]
compound_string = "CNC(=O)c1nn(C)c2c1C(C)(C)Cc1cnc(Nc3ccc(N4CCN(C)CC4)cc3)nc1-2"
result_value = "> 9.15 µM"

[[record]]
compound_string = "O=c1cc(-c2cc(O)c(O)c(-c3c(O)cc4oc(-c5ccc(O)c(O)c5)cc(=O)c4c3O)c2)oc2cc(O)cc(O)c12"
result_value = "> 25 µM"


# input Please report the measured TGI for `O=C(N/N=C/c1ccc(Br)cc1)N/N=C/c1ccc(Br)cc1` tested on UACC-257 melanoma.
# output 40.2 µM

====

Measured TGI, listed per entry for reference.
# System: SN12C renal
# method.summary: NCI tumour cell line growth inhibition, 48 h

[[record]]
molecule = "COc1ccc(NC(=S)NC(=O)c2ccc3c(c2)Sc2ccccc2O3)c([N+](=O)[O-])c1"
result_value = "> 100 µM"

[[record]]
molecule = "S=c1cc(-c2ccc3c(c2)OCO3)s[nH]1"
result_value = "> 100 µM"

[[record]]
molecule = "CN(C)CC1CCC(CN(C)C)C1=O (stereo not drawn)"
result_value = "13.4 µM"

[[record]]
molecule = "CC(C(=O)O)C(C)(O)C(=O)O (stereo not drawn)"
result_value = "> 100 µM"

[[record]]
molecule = "CC(C)(C)OC(=O)NCCCCCCCn1c2c(c3ccccc3c1=O)C(=O)c1ccccc1-2"
result_value = "> 100 µM"


# input Provide TGI value for the following molecule: CC(=O)OCC1OC(N2C(=O)C(=O)c3ccccc32)C(OC(C)=O)C(OC(C)=O)C1OC(C)=O (stereo not drawn)
# output > 100 µM

# input Provide TGI value for the following molecule: `O=C(O)c1ccccc1/C=N/N=C1c2ccccc2-c2ccccc21`
# output > 100 µM

====

# Test system: HOP-62 NSCLC
# method.summary: NCI tumour cell line growth inhibition, 48 h; in the data active means GI50 below about 0.43 µM; inactive means the rest
// one of T for active, F for inactive, no free text

Below are worked cases with known answers.
[[record]]
molecule = "CN(C)C(=O)O[C@H]1CN[C@H](C#Cc2cc3ncnc(Nc4ccc(OCc5cccc(F)c5)c(Cl)c4)c3s2)C1"
classification = "F"

[[record]]
molecule = "C=C1C(=O)O[C@H]2[C@H]1CC/C(COC(=O)NCC(C)c1ccc(CC(C)C)cc1)=C\\CC[C@@]1(C)O[C@@H]21 (stereo not given in full)"
classification = "F"

[[record]]
molecule = "CCNC(=O)c1noc(-c2cc(C(C)C)c(O)cc2O)c1-c1ccc(CN2CCOCC2)cc1"
classification = "T"


# input Dear all, I need the recorded test outcome for `COc1ccc2c(c1)/C(=C/c1cc(OC)c(OC)c(OC)c1)C(=O)N2` , thank you.
# output T

# input Dear all, I need the recorded test outcome for `O=c1c(F)cn(Cc2ccccc2CCl)c(=O)n1Cc1ccccc1CCl` , thank you.
# output F

# input Dear all, I need the recorded test outcome for `O=[N+]([O-])c1ccc(Sc2c3ccccc3nc3cc(Cl)ccc23)cc1` , thank you.
# output F

# input Dear all, I need the recorded test outcome for `CCCCCCCCCCCCCCCC[N+]1(C)CCOCC1` , thank you.
# output F

# input Dear all, I need the recorded test outcome for `CNC(=O)c1nn(C)c2c1C(C)(C)Cc1cnc(Nc3ccc(N4CCN(C)CC4)cc3)nc1-2` , thank you.
# output F

# input Dear all, I need the recorded test outcome for `O=c1oc2ccc(I)cc2c(=O)n1-c1ccc(Cl)cc1F` , thank you.
# output F

# input Dear all, I need the recorded test outcome for C[C@H]1CCCC(O)C(O)[C@@H]2C[C@H](O[Si](C)(C)C(C)(C)C)C[C@H]2[C@H](O[Si](C)(C)C(C)(C)C)C(O)C(O)C(=O)O1 (stereo not given in full) , thank you.
# output F
